testTarget: ATR kinase (Homo sapiens, UniProt Q13535)
Construct: purchased Eurofins 14-953
Sequence (Q13535 whole entry): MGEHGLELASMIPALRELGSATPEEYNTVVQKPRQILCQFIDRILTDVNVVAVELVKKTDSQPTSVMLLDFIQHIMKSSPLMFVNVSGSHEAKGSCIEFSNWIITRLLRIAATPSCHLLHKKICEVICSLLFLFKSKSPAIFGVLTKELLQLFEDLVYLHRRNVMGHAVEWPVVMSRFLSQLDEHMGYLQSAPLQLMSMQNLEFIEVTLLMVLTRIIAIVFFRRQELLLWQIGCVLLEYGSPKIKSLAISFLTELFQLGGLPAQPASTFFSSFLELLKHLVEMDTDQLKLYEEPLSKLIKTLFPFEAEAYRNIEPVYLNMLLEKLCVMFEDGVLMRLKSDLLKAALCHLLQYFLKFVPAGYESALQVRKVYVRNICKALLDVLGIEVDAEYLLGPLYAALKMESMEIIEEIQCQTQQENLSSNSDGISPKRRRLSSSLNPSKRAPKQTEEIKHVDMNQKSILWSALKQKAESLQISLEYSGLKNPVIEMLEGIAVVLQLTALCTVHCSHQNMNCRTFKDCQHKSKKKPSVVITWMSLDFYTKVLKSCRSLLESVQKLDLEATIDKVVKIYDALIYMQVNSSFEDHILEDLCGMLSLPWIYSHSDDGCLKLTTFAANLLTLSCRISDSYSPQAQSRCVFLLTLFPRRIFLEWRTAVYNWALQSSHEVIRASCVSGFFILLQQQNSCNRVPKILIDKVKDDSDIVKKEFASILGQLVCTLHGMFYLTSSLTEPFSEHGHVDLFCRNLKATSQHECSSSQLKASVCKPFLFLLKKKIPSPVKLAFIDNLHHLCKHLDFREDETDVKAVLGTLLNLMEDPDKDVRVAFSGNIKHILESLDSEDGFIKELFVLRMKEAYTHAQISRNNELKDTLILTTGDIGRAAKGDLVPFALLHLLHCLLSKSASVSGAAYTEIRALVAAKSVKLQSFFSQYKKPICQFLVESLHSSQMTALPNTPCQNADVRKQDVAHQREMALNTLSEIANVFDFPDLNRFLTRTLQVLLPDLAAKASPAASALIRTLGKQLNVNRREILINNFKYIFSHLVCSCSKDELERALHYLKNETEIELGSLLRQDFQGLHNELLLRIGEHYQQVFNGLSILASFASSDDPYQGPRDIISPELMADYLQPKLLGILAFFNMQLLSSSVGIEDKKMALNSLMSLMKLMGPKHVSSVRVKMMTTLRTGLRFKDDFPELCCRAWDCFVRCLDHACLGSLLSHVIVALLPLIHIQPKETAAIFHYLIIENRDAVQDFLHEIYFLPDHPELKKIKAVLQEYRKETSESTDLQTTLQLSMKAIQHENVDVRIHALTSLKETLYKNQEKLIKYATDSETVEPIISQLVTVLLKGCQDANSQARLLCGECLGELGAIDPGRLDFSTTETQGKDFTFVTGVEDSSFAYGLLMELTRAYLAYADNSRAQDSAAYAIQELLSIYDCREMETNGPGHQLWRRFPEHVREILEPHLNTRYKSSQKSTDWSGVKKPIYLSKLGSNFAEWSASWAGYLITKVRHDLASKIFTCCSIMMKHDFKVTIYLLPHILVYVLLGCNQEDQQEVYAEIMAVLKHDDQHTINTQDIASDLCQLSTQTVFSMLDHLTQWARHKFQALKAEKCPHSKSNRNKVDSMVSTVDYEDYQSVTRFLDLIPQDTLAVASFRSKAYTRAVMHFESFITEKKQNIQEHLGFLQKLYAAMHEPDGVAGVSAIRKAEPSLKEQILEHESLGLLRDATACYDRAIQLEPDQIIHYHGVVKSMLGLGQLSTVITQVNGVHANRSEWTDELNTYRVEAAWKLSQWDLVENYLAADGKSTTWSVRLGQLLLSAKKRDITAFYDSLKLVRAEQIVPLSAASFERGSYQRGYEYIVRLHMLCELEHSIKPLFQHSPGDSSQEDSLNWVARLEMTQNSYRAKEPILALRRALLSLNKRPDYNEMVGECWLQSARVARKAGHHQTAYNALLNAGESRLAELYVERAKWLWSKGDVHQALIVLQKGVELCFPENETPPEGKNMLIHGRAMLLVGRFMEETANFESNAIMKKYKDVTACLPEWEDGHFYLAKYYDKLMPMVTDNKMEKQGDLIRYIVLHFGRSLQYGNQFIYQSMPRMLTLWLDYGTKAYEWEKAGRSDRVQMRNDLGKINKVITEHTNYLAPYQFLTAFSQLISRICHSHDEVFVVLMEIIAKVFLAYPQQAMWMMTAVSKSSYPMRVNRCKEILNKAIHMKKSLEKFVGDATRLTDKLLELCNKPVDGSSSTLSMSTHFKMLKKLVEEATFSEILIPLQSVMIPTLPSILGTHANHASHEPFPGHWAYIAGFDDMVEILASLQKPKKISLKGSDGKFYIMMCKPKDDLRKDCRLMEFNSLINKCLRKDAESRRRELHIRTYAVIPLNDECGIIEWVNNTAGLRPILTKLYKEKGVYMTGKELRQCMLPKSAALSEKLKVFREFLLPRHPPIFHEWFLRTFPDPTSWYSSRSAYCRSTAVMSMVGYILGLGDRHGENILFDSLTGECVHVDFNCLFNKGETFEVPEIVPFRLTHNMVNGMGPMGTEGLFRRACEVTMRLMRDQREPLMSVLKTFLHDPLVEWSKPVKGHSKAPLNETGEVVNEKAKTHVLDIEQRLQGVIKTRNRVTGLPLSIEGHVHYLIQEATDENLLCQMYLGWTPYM
Sequence (Q8WXE1 whole entry partner): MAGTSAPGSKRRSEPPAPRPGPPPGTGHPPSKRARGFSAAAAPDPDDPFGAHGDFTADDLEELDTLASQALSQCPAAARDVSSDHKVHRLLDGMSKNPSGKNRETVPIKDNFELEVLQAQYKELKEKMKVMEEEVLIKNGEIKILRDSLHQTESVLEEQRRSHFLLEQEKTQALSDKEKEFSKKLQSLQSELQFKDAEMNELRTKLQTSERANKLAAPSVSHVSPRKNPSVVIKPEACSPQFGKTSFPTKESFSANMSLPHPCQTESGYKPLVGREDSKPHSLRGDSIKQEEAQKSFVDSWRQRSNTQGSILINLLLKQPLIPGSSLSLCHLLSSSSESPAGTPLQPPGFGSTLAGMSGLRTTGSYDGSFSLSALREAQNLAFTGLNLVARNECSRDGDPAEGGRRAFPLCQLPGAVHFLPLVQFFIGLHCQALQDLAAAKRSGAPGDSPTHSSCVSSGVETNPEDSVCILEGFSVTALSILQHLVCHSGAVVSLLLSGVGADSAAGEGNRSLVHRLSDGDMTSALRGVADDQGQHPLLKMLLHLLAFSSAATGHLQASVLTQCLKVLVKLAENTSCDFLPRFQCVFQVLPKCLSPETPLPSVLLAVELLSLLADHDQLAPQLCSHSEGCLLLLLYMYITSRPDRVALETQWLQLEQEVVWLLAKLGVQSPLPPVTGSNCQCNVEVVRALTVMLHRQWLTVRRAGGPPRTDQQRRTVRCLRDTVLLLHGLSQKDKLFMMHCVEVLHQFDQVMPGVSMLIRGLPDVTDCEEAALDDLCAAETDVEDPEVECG
assayDetails: Inhibitory effect on ATR kinase activity (Caliper mobility shift, FAM-labeled RAD17 peptide substrate)
Assay type: biochemical
conditionContext: read-out: ATR kinase IC50, 1 nM ATR kinase (Eurofins), 28°C for 3 hours, maximum concentration 1 µM, 10 concentrations
pIC50: −log10 of the molar value.
measuredAttribute: pIC50

Find the recorded pIC50 belonging to "COCC1(N2C(=O)CCn3nc(-c4cc[nH]n4)c4nc(N5CCOC[C@H]5C)cc2c43)CC1" and report it.
7.00 to 8.00

Given "C[C@@H]1COCCN1c1cc2c3c(n1)c(-c1cc[nH]n1)nn3CCC(=O)N2C1(CF)CC1" , state its recorded pIC50.
> 8.00

Recorded pIC50 for C[C@@H]1COCCN1c1cc2c3c(n1)c(-c1cc[nH]n1)nn3CCC(=O)N2C1CC1C(F)(F)F (stereo partly shown) , please?
7.00 to 8.00

For "C[C@@H]1COCCN1c1cc2c3c(nn(-c4cc[nH]n4)c3n1)CCC(=O)N2C1CC(F)(F)C1" , what is its reported pIC50?
> 8.00

Recorded pIC50 for CC1NC(=O)Cn2nc(-c3cc[nH]n3)c3nc(N4CCOC[C@H]4C)cc1c32 (stereo partly shown) , please?
7.00 to 8.00

Which pIC50 is reported for this molecule? "C[C@@H]1COCCN1c1cc2c3c(n1)c(-c1cc[nH]n1)nn3CCC(=O)N2C12CC(C1)C2"
> 8.00

I'd like to know its pIC50. The molecule in question is "C[C@@H]1COCCN1c1cc2c3c(n1)c(-c1cc[nH]n1)nn3CCC(=O)N2CC(C)(C)O"
7.00 to 8.00

* * *

testTarget: ATR kinase (Homo sapiens)
Construct: purchased Eurofins 14-953
assayDetails: Inhibitory effect on ATR kinase activity (Caliper mobility shift, FAM-labeled RAD17 peptide substrate)
Assay type: biochemical
conditionContext: read-out: ATR kinase IC50, 1 nM ATR kinase (Eurofins), 28°C for 3 hours, maximum concentration 1 µM, 10 concentrations
pIC50: −log10 of the molar value.
measuredAttribute: pIC50

What is its pIC50 for ATR kinase (Homo sapiens)? Entry: CC(C(=O)N1CCc2nn(-c3cc[nH]n3)c3nc(N4CCOC[C@H]4C)cc(c23)C1)C(F)(F)F (stereo partly shown)
> 8.00

Give the reported pIC50 for CC1c2cc(N3CCOC[C@H]3C)nc3c2c(nn3-c2cc[nH]n2)CCN1C(=O)C1(C(F)(F)F)CC1 (single isomer, unassigned) [Compound 33B] (system: ATR kinase (Homo sapiens)).
6.00 to 7.00

Request - read-out pIC50 | tested on ATR kinase (Homo sapiens) | compound "C[C@@H]1COCCN1c1cc2c3c(nn(-c4cc[nH]n4)c3n1)CCN(C13CC(C1)C3)C2=O"
> 8.00

Record "C[C@@H]1COCCN1c1cc2c3c(n1)c(-c1cc[nH]n1)nn3CCC(=O)N2CC1(C#N)CC1" : what is its pIC50 with ATR kinase (Homo sapiens)?
7.00 to 8.00

Give the reported pIC50 for "COCC12CC(N3C(=O)CCn4nc(-c5cc[nH]n5)c5nc(N6CCOC[C@H]6C)cc3c54)(C1)C2" (system: ATR kinase (Homo sapiens)).
> 8.00

Lookup: pIC50 / ATR kinase (Homo sapiens) / CC1c2cc(N3CCOC[C@H]3C)nc3c2c(nn3-c2cc[nH]n2)CCN1C(=O)C1(C(F)(F)F)CC1 (single isomer, unassigned) [Compound 33A]
> 8.00

GET /values?readout=pIC50&system=ATR kinase (Homo sapiens)&item= C=CC(C)N1C(=O)CCn2nc(-c3cc[nH]n3)c3nc(N4CCOC[C@H]4C)cc1c32 (stereo partly shown)
> 8.00

* * *

System: LoVo cells
assayDetails: LoVo cell proliferation assay (CellTiter-Glo)
Assay type: cell-based
conditionContext: Homo sapiens, LoVo, 120 h, LoVo cells, 2,000 cells per well, 5 days incubation, CellTiter-Glo; maximum concentration 10 µM, 9 concentrations; read-out: LoVo IC50
For each record, write down the corresponding IC50.

I am curious: what IC50 value has been reported for [2H]C([2H])([2H])N1CCc2nn(-c3cc[nH]n3)c3nc(N4CCOC[C@H]4C)cc(c23)C1C (single isomer, unassigned) [Compound 47A] ?
< 100 nM

Recorded IC50 of C[C@@H]1COCCN1c1cc2c3c(nn(-c4cc[nH]n4)c3n1)CCN(C1CC3CCC(C1)O3)C2 (stereo partly shown) , please.
100 to 1000 nM

Which IC50 value belongs to "C[C@@H]1COCCN1c1cc2c3c(n1)c(-c1cc[nH]n1)nn3CCC(=O)N2C1CCOCC1" ?
100 to 1000 nM

// lookup IC50 for "C[C@@H]1COCCN1c1cc2c3c(nn(-c4cc[nH]n4)c3n1)CCN(C(=O)C1CC(F)(F)C1)C2"
> 1000 nM

* * *

Would you mind telling me the reported IC50 of each entry?
Tested on: LoVo cells
assayDetails: LoVo cell proliferation assay (CellTiter-Glo)
Format: cell-based
conditionContext: Homo sapiens, LoVo, 120 h, LoVo cells, 2,000 cells per well, 5 days incubation, CellTiter-Glo; maximum concentration 10 µM, 9 concentrations; read-out: LoVo IC50

Fill in the blank: the reported IC50 of C[C@@H]1COCCN1c1cc2c3c(nc(-c4cc[nH]n4)n3n1)CCC(=O)N2C1(C)CC1 [Compound 154] is ____.
< 100 nM

IC50 for CC(C)N1CCn2nc(-c3cc[nH]n3)c3nc(N4CCOC[C@H]4C)cc1c32 [Compound 63] ?
100 to 1000 nM

Given CC1=NCCn2nc(-c3cc[nH]n3)c3nc(N4CCOC[C@H]4C)cc1c32 [Compound 58] , state its recorded IC50.
100 to 1000 nM

Need IC50 of C[C@@H]1COCCN1c1cc2c3c(nn(-c4cc[nH]n4)c3n1)CCN(C1COC1)C2C1CC1 (stereo partly drawn) [Compound 135] , thanks.
< 100 nM

Fill in: IC50 of C[C@@H]1COCCN1c1cc2c3c(nn(-c4cc[nH]n4)c3n1)CCN(C1CC(F)(F)C1)C2 [Compound 7] is ___
100 to 1000 nM

Look up IC50: C#CC(C)N1CCc2nn(-c3cc[nH]n3)c3nc(N4CCOC[C@H]4C)cc(c23)C1 (stereo partly drawn) [Compound 21]
100 to 1000 nM

Please look up its IC50: C[C@@H]1COCCN1c1cc2c3c(nn(-c4cc[nH]n4)c3n1)CCN(C1COC1)C2 [Compound 8]
100 to 1000 nM

Suppose we examine the compound C[C@@H]1COCCN1c1cc2c3c(n1)c(-c1cc[nH]n1)nn3CCCN2C1CC1 [Compound 122] ; what IC50 value has been reported?
100 to 1000 nM

Given C[C@@H]1COCCN1c1cc2c3c(nn(-c4cc[nH]n4)c3n1)CCN(C)C2(C)C [Compound 149] , state its recorded IC50.
< 100 nM

For the compound shown here, CC1c2cc(N3CCOC[C@H]3C)nc3c2c(nn3-c2cc[nH]n2)CCN1S(C)(=N)=O (single isomer, unassigned) [Compound 46A] , give the reported IC50.
100 to 1000 nM

Param item = C[C@@H]1COCCN1c1cc2c3c(nn(-c4cc[nH]n4)c3n1)CCC(=O)N2CC1(C)CC1 [Compound 77] ; retrieve measured IC50.
< 100 nM

Entry under review: C[C@@H]1COCCN1c1cc2c3c(nn(-c4cc[nH]n4)c3n1)CCC(=O)N2C1(C)CC1 [Compound 75] . Reported IC50?
< 100 nM

Find the recorded IC50 belonging to CCN1CCc2nn(-c3cc[nH]n3)c3nc(N4CCOC[C@H]4C)cc(c23)C1C (single isomer, unassigned) [Compound 41A] and report it.
< 100 nM

What IC50 value was documented for this compound, C[C@@H]1COCCN1c1cc2c3c(nn(-c4cc[nH]n4)c3n1)CCN(S(C)(=N)=O)C2 (stereo partly drawn) [Compound 28] ?
> 1000 nM

I would be grateful if you could share the reported IC50 for CC1COCC1N1CCc2nn(-c3cc[nH]n3)c3nc(N4CCOC[C@H]4C)cc(c23)C1 (stereo partly drawn) [Compound 12] .
100 to 1000 nM

Please look up its IC50: C[C@@H]1COCCN1c1cc2c3c(n1)c(-c1cc[nH]n1)nn3CCN(S(C)(=O)=O)C2 [Compound 55]
100 to 1000 nM

Which IC50 is reported for this compound? CC1c2cc(N3CCOC[C@H]3C)nc3c(-c4cc[nH]n4)nn(c23)CCN1C1COC1 (stereo partly drawn) [Compound 57]
100 to 1000 nM

Reported IC50, compound C[C@@H]1COCCN1c1cc2c3c(nn(-c4cc[nH]n4)c3n1)CCN(C1CCOC1)C2 (stereo partly drawn) [Compound 4] : ____
100 to 1000 nM

So what's the measured IC50 for this one? C[C@@H]1COCCN1c1cc2c3c(n1)c(-c1cc[nH]n1)nn3CCC2(O)C1CCOCC1 (single isomer, unassigned) [Compound 73A]
> 1000 nM

Returns the measured IC50 for the input compound. Input: C[C@@H]1COCCN1c1cc2c3c(nn(-c4cc[nH]n4)c3n1)CCN(C1CCOCC1)C2 [Compound 3]
100 to 1000 nM

Please give the measured IC50 for this compound: CC1c2cc(N3CCOC[C@H]3C)nc3c2c(nn3-c2cc[nH]n2)CCN1c1cnn(C)c1 (stereo partly drawn) [Compound 43]
100 to 1000 nM

Given the compound C[C@@H]1COCCN1c1cc2c3c(nn(-c4cc[nH]n4)c3n1)CCN(CC(F)(F)F)C2 [Compound 14] , what is its reported IC50?
100 to 1000 nM

// lookup IC50 for C[C@@H]1COCCN1c1cc2c3c(n1)c(-c1cc[nH]n1)nn3CCN(C(=O)C1CC(F)(F)C1)C2 [Compound 53]
> 1000 nM

Item C[C@@H]1COCCN1c1cc2c3c(n1)c(-c1cc[nH]n1)nn3CCCN2S(C)(=O)=O [Compound 121] has what recorded IC50?
< 100 nM

Requested read-out: IC50. Entry: C[C@@H]1COCCN1c1cc2c3c(nn(-c4cc[nH]n4)c3n1)CCN(S(C)(=O)=O)C2 [Compound 22]
< 100 nM

# IC50 lookup, item C[C@@H]1COCCN1c1cc2c3c(nn(-c4cc[nH]n4)c3n1)CCOC2C(F)F (stereo partly drawn) [Compound 148]
< 100 nM

Requested read-out: IC50. Entry: CC1c2cc(N3CCOC[C@H]3C)nc3c2c(nn3-c2cc[nH]n2)CCN1C1(C#N)CC1 (single isomer, unassigned) [Compound 42A]
< 100 nM

Quick one: IC50 of CCC1c2cc(N3CCOC[C@H]3C)nc3c2c(nn3-c2cc[nH]n2)CCN1S(C)(=O)=O (single isomer, unassigned) [Compound 144A] ?
100 to 1000 nM

Please look up its IC50: C[C@@H]1COCCN1c1cc2c3c(nn(-c4cc[nH]n4)c3n1)CCN(S(=O)(=O)C(F)F)C2 [Compound 27]
100 to 1000 nM

Form field: reported IC50 of C[C@@H]1COCCN1c1cc2c3c(nn(-c4cc[nH]n4)c3n1)CCN(S(=O)(=O)C(F)(F)F)C2 [Compound 25]
< 100 nM

Values compiled from patent EP4692090A1.
